# experimentDescription: reversal of MRP1-mediated doxorubicin resistance, pilot screen, H69AR cells, doxorubicin co-treatment (AID 601)
# protocolConditions: H69AR cells + 2 uM doxorubicin, CellTiter-Glo, 72 h; measured here: viability with 2 uM doxorubicin; at 10 µM; stronger effect = lower value
Labelling: viability reported below 90% becomes Yes; at or above becomes No.

{"columns": ["smilesRepresentation", "discreteLabel"],
 "data": [
  ["O=C(Nc1cccc2ccccc12)N1CCOCC1", "No"],
  ["O=S(=O)(NC1CCCC1)c1ccc(S(=O)(=O)N2CCc3ccccc32)cc1", "Yes"],
  ["COc1ccccc1N(CC(=O)NCc1ccccc1)S(C)(=O)=O", "No"],
  ["c1csc(-c2nc3nc4ccccc4nc3n2Cc2ccc3c(c2)OCO3)c1", "Yes"],
  ["COC(=O)c1oc2ccc(Br)cc2c1NC(=O)CN1CCN(C)CC1", "Yes"]
]}
